- targetUnderTest: Cell division control protein 42 homolog (Homo sapiens)
- experimentalDetails: Cdc42 activated mutant GTP-binding inhibitors, SAR follow-up, biochemical, bead-based multiplex flow cytometry, additional SAR set (AID 2021)
- conditionSummary: fluorescent GTP binding
Calls of active or inactive are those of the source. How the calls were made is not given here.
Thanks in advance; please answer with one of these: active, inactive

Exercise: Look up the recorded call for `O=Nc1c(-c2c(O)[nH]c3c(Cl)cccc23)[nH]c2ccccc12` in this test.
Key: inactive

Exercise: What was the test verdict on `O=C1C(c2c(O)[nH]c3ccc(Br)cc23)=Nc2ccccc21` ?
Key: inactive

Exercise: Name the outcome recorded for `COc1ccc(C(=O)C#Cc2ccccc2)cc1` in the assay.
Key: inactive

Exercise: Outcome? `O=C1N=c2ccccc2=C1c1[nH]c(=O)[nH]c1O`
Key: inactive

Exercise: // return assay outcome for `CSc1ccc(/C=C2/C(C)=C(CC(=O)O)c3cc(F)ccc32)cc1`
Key: inactive

Exercise: Entry `COc1ccc(S(=O)(=O)n2c(N)c(C#N)c(-c3cncc(Br)c3)c2C(=O)c2ccccc2)cc1` : call = ?
Key: active

Exercise: Check the results log: what was the call for `O=C1C(c2c(O)[nH]c3c(F)cccc23)=Nc2ccccc21` ?
Key: inactive

Exercise: Per the assay record, what outcome was assigned to `O=[N+]([O-])c1ccc(C#Cc2ccccc2)cc1` ?
Key: active

###

- targetUnderTest: Cell division control protein 42 homolog (Homo sapiens)
- experimentalDetails: Cdc42 activated mutant GTP-binding inhibitors, SAR follow-up, biochemical, bead-based multiplex flow cytometry, additional SAR set (AID 2021)
- conditionSummary: fluorescent GTP binding
Calls of active or inactive are those of the source. The rule behind the calls is not given here.
Please provide measured EC50 for the entries that follow.

| compound | targetUnderTest | EC50 |
| --- | --- | --- |
| COC(=O)c1ccc(C(=O)C#Cc2ccccc2)cc1 | Cell division control protein 42 homolog (Homo sapiens) | > 30 µM (inactive) |
| COc1ccc2cc(CC(=O)O)ccc2c1 | Cell division control protein 42 homolog (Homo sapiens) | > 30 µM (inactive) |
| CC(C(=O)O)c1cccc(C(=O)c2ccccc2)c1 (stereo unspecified) | Cell division control protein 42 homolog (Homo sapiens) | > 30 µM (inactive) |

List EC50 for every entry below, keeping the order given.
1. O=C(C#Cc1ccccc1)c1ccc([N+](=O)[O-])cc1
2. COc1ccc(S(=O)(=O)n2c(N)c(C#N)c(-c3ccccc3)c2C(=O)c2ccc(Br)cc2)cc1

Key:
1: > 30 µM (inactive); 2: > 30 µM (inactive)

###

- targetUnderTest: UniProt:P60953
- Sequence (P60953 whole entry, looked up): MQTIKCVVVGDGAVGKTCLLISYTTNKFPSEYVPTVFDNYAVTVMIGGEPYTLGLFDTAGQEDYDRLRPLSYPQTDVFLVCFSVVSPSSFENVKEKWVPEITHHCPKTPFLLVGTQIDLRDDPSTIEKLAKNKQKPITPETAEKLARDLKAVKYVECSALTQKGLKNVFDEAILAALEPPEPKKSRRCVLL
- experimentalDetails: Cdc42 activated mutant GTP-binding inhibitors, SAR follow-up, biochemical, bead-based multiplex flow cytometry, additional SAR set (AID 2021)
- conditionSummary: fluorescent GTP binding, measured here: Ki derived from EC50
What pKi was measured for each of the following?
Give bare numbers, as −log10 of the molar value.

# return pKi for each item in the list
1. O=C(C#Cc1ccccc1)c1ccc(F)cc1
2. N#Cc1c(-c2ccc(Cl)cc2)c(C(=O)c2ccccc2)n(S(=O)(=O)c2ccc([N+](=O)[O-])cc2)c1N
3. COc1ccc(S(=O)(=O)n2c(N)c(C#N)c(-c3cncc(Br)c3)c2C(=O)c2ccccc2)cc1
4. O=Nc1c(-c2c(O)[nH]c3c(Br)cccc23)[nH]c2ccccc12
5. COc1ccc(-c2c(C#N)c(N)n(S(C)(=O)=O)c2C(=O)c2ccccc2)cc1Br

Key:
[5.04, 6.03, 5.81, 5.07, 5.54]

List the reported pKi of each molecule below.
1. CSc1ccc(/C=C2/C(C)=C(CC(=O)O)c3cc(F)ccc32)cc1
2. CCCCS(=O)(=O)n1c(N)c(C#N)c(-c2cc(OC)c(OC)c(OC)c2)c1C(=O)c1ccccc1

Key:
5.12
5.54

Values were extracted from PubChem BioAssay AID2021.
